Recorded Sampling time/Dissociation percent (%) 5 min values for a group of molecules are listed next.
Assay: In vitro dissociation in blood plasma of rabbit
Assay type: in vitro ADME, New Zealand white rabbits
Settings: fresh New Zealand white rabbit plasma, 37° C., 5 min
assay.endpoint: Sampling time/Dissociation percent (%) 5 min

molecule	readout.value
CO[C@H]1C(=O)[C@]2(C)[C@@H](OC)C[C@H]3OC[C@@]3(OC(C)=O)[C@H]2[C@H](OC(=O)c2ccccc2)[C@]2(O)C[C@H](OC(=O)[C@H](OC(=O)[C@@H](F)CCN(C)C)[C@@H](NC(=O)OC(C)(C)C)c3ccccc3)C(C)=C1C2(C)C.CS(=O)(=O)O	94.5
CO[C@H]1C(=O)[C@]2(C)[C@@H](OC)C[C@H]3OC[C@@]3(OC(C)=O)[C@H]2[C@H](OC(=O)c2ccccc2)[C@]2(O)C[C@H](OC(=O)[C@H](OC(=O)C(F)CCN(C)C)[C@@H](NC(=O)OC(C)(C)C)c3ccccc3)C(C)=C1C2(C)C.CS(=O)(=O)O (some centres unmarked)	96.7
CC(=O)O[C@@]12CO[C@@H]1C[C@H](O)[C@@]1(C)C(=O)[C@H](O)C3=C(C)[C@@H](OC(=O)[C@H](OC(=O)[C@H](F)CCN(C)C)[C@@H](NC(=O)OC(C)(C)C)c4ccccc4)C[C@@](O)([C@@H](OC(=O)c4ccccc4)[C@H]21)C3(C)C.CS(=O)(=O)O	94.8
CC(=O)OC12COC1CCC1(C)C3OC(CN(C)C)OC3C3=C(C)C(OC(=O)C(OC(=O)C(F)CC(C)N(C)C)C(NC(=O)OC(C)(C)C)c4ncccc4F)CC(O)(C(OC(=O)c4ccccc4)C12)C3(C)C.CS(=O)(=O)O (centres unmarked)	93.4
CC(=O)O[C@H]1C(=O)[C@@]2(C)[C@H]([C@H](OC(=O)c3ccccc3)[C@]3(O)C[C@H](OC(=O)[C@H](OC(=O)[C@@H](F)CCN(C)C)[C@@H](NC(=O)c4ccccc4)c4ccccc4)C(C)=C1C3(C)C)[C@]1(OC(C)=O)CO[C@@H]1C[C@@H]2O.CS(=O)(=O)O	98.1
CC(=O)OC12COC1CC(O)C1(C)C(=O)C(O)C3=C(C)C(OC(=O)C(OC(=O)C(F)CCN(C)C)C(NC(=O)OC(C)(C)C)c4ccccc4)CC(O)(C(OC(=O)c4ccccc4)C21)C3(C)C.Cl (centres unmarked)	93.5
CC(=O)O[C@@]12CO[C@@H]1CC[C@@]1(C)[C@@H]3O[C@H](CN(C)C)O[C@@H]3C3=C(C)[C@@H](OC(=O)[C@H](OC(=O)[C@H](F)CC(C)N(C)C)[C@@H](NC(=O)OC(C)(C)C)c4ncccc4F)C[C@@](O)([C@@H](OC(=O)c4ccccc4)[C@@H]12)C3(C)C.Cl (some centres unmarked)	96.8
CO[C@H]1C(=O)[C@]2(C)[C@@H](OC)C[C@H]3OC[C@@]3(OC(C)=O)[C@H]2[C@H](OC(=O)c2ccccc2)[C@]2(O)C[C@H](OC(=O)[C@H](OC(=O)[C@@H](CCN)C(F)F)[C@@H](NC(=O)OC(C)(C)C)c3ccccc3)C(C)=C1C2(C)C.O=S(=O)(O)O	68.4
CC(=O)O[C@H]1C(=O)[C@@]2(C)[C@H]([C@H](OC(=O)c3ccccc3)[C@]3(O)C[C@H](OC(=O)[C@H](OC(=O)C(F)CCN(C)C)[C@@H](NC(=O)c4ccccc4)c4ccccc4)C(C)=C1C3(C)C)[C@]1(OC(C)=O)CO[C@@H]1C[C@@H]2O.CS(=O)(=O)O (some centres unmarked)	94.6
CCN(CC)CC[C@](C)(C(=O)O[C@@H](C(=O)O[C@H]1C[C@@]2(O)[C@@H](OC(=O)c3ccccc3)[C@@H]3[C@]4(OC(C)=O)CO[C@@H]4C[C@H](OC)[C@@]3(C)C(=O)[C@H](OC)C(=C1C)C2(C)C)[C@@H](NC(=O)OC(C)(C)C)c1ccccc1)C(F)(F)F.Cl	84.5
CC(=O)O[C@H]1C(=O)[C@@]2(C)[C@H]([C@H](OC(=O)c3ccccc3)[C@]3(O)C[C@H](OC(=O)[C@H](OC(=O)[C@H](F)CCN(C)C)[C@@H](NC(=O)c4ccccc4)c4ccccc4)C(C)=C1C3(C)C)[C@]1(OC(C)=O)CO[C@@H]1C[C@@H]2O.Cl	98.3
CO[C@H]1C(=O)[C@]2(C)[C@@H](OC)C[C@H]3OC[C@@]3(OC(C)=O)[C@H]2[C@H](OC(=O)c2ccccc2)[C@]2(O)C[C@H](OC(=O)[C@H](OC(=O)[C@H](F)CCN(C)C)[C@@H](NC(=O)OC(C)(C)C)c3ccccc3)C(C)=C1C2(C)C.CS(=O)(=O)O	94.8
CC(=O)O[C@H]1C(=O)[C@@]2(C)[C@H]([C@H](OC(=O)c3ccccc3)[C@]3(O)C[C@H](OC(=O)[C@H](OC(=O)C(F)CCN(C)C)[C@@H](NC(=O)c4ccccc4)c4ccccc4)C(C)=C1C3(C)C)[C@]1(OC(C)=O)CO[C@@H]1C[C@@H]2O.Cl (some centres unmarked)	93.5
CCN(C)C(C)C[C@H](CC(F)F)C(=O)O[C@@H](C(=O)O[C@H]1C[C@@]2(O)[C@@H](OC(=O)c3ccccc3)[C@@H]3[C@]4(OC(C)=O)CO[C@@H]4C[C@H](O)[C@@]3(C)C(=O)[C@H](O)C(=C1C)C2(C)C)[C@@H](NC(=O)OC(C)(C)C)c1ccccc1.Cl (some centres unmarked)	61.3
